Listing of entries alongside the reported pKd.
systemTested: T1, human GPC3 (human, UniProt P51654 25-563)
T1 construct: range 25-563; soluble analyte; also called soluble human GPC3; glypican 3
T1 sequence (P51654 25-563 limits assumed): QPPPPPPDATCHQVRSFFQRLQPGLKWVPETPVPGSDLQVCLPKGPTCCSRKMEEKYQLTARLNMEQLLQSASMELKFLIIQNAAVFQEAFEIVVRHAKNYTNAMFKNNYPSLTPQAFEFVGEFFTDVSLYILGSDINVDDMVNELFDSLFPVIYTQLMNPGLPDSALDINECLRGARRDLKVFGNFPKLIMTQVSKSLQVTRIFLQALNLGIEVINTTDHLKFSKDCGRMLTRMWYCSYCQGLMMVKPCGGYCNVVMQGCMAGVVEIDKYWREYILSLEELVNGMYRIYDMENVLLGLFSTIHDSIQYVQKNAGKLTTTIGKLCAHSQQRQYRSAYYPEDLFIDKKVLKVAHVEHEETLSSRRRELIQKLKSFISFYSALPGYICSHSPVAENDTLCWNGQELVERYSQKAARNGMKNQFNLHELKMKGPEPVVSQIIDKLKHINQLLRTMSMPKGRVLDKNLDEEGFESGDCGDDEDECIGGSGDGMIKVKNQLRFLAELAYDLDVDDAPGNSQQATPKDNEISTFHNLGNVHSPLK
assay: SPR
Quick note: pKd means taking -log10 of the concentration in moles per liter.

Answered cases to consult:
H0610-G1dh/none-Hi-Kn010G3/L0227-k0 (antibody, V domains shown, one-arm) VH: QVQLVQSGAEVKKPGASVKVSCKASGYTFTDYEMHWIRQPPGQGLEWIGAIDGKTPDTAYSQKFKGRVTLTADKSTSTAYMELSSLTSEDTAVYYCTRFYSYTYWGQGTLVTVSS VL: DIVMTQSPLSLPVTPGEPASISCRSSQSPVHSNRNTYIHWYQQKPGQAPRLLIYKVSNRFSGVPDRFSGSGSGTDFTLKISRVEAEDVGVYYCLQGTQVPYTFGQGTKLEIK :: 9.39
H0610-G1dh/none-Hi-Kn010G3/L0039-k0 (antibody, V domains shown, one-arm) VH: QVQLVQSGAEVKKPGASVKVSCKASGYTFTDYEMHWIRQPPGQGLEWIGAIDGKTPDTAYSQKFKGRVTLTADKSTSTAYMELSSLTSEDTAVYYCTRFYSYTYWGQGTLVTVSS VL: DIVMTQSPLSLPVTPGEPASISCRSSQSLVHHNRNTYLHWYQQKPGQAPRLLIYKVSNRFSGVPDRFSGSGSGTDFTLKISRVEAEDVGVYYCGQGTQVPYTFGQGTKLEIK :: 8.47

Problem: Using the record for H0610-G1dh/none-Hi-Kn010G3/L0115-k0 (antibody, V domains shown, one-arm) VH: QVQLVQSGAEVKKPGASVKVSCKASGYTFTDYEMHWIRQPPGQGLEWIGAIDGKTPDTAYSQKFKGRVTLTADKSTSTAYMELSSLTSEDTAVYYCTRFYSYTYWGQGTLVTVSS VL: DIVMTQSPLSLPVTPGEPASISCRSSQSLVHSNRNTYLHWYQQKPGQAPRLLIYKVSWRFSGVPDRFSGSGSGTDFTLKISRVEAEDVGVYYCGQGTQVPYTFGQGTKLEIK , state its measured pKd.
Solution: 8.36
